Quick record: log10 of Ki, Cannabinoid receptor 1 (Rattus norvegicus, UniProt P20272).
readout-name: log10 of Ki (log10 of the value in nM)

[[record]]
compound = "CCCCCCC1(c2cc(O)c3c(c2)OC(C)(C)[C@@H]2CC=C(C)C[C@@H]32)Sc2ccccc2S1"
measured_value = 1.76

[[record]]
compound = "CCCCCCC1(c2cc(O)c3c(c2)OC(C)(C)[C@@H]2CC=C(C)C[C@@H]32)CCCC1"
measured_value = -0.35

[[record]]
compound = "CCCCCCC1(c2cc(O)c3c(c2)OC(C)(C)[C@@H]2CC=C(C)C[C@@H]32)OCCO1"
measured_value = -0.28

[[record]]
compound = "CCCCCCC1(c2cc(O)c3c(c2)OC(C)(C)[C@@H]2CC=C(C)C[C@@H]32)SCCCS1"
measured_value = 0.26

[[record]]
compound = "CC1=CC[C@@H]2[C@@H](C1)c1c(O)cc(C3SCCS3)cc1OC2(C)C"
measured_value = 2.23

[[record]]
compound = "CCCCCCC1(c2cc(O)c3c(c2)OC(C)(C)[C@@H]2CC=C(C)C[C@@H]32)SC(C)C(C)S1 (some centres not stated)"
measured_value = 1.51

[[record]]
compound = "CCCCCCCc1cc(O)c2c(c1)OC(C)(C)[C@@H]1CC=C(C)C[C@@H]21"
measured_value = 1.34


Origin of values: ChEMBL document CHEMBL1145850
